- Test system: MDA-MB-231 breast
- PROCEDURE TEXT: NCI-60 one-dose screen, 48 h (100 = growth as untreated, 0 = no growth, -100 = all killed)
- TEST SETTINGS: 10 µM unless noted
The panel holds about 83,000 compounds, 20% with a hit somewhere; the sample as a whole holds those more often.
Lab note: compare growth with 30%, writing class 1 if less and class 0 if equal or more.

COMPOUND	CATEGORY LABEL
COC(=O)CNC(=O)[C@@H](OC)[C@@H]1Cc2cc3cc(OC4CC(OC5CC(O)C(O)C(C)O5)C(O)C(C)O4)c(C)c(O)c3c(O)c2C(=O)[C@H]1OC1CC(OC2CC(OC3CC(C)(O)C(O)C(C)O3)C(O)C(C)O2)C(O)C(C)O1 (some centres not stated)	class 1
Cc1c(CN2CCN(C(=O)[C@H](C)O)CC2)sc2c(N3CCOCC3)nc(-c3cnc(N)nc3)nc12	class 1
Cc1ccc(Nc2nccc(N(C)c3ccc4c(C)n(C)nc4c3)n2)cc1S(N)(=O)=O	class 1
CC(C)(O)CC(=O)NCCn1ccc2ncnc(Nc3ccc(Oc4cccc(C(F)(F)F)c4)c(Cl)c3)c21	class 1
CNC(=O)c1nn(C)c2c1C(C)(C)Cc1cnc(Nc3ccc(N4CCN(C)CC4)cc3)nc1-2	class 1
CC[C@@H]1C(=O)N(C)c2cnc(Nc3ccc(C(=O)NC4CCC(N5CCN(CC6CC6)CC5)CC4)cc3OC)nc2N1C(C)C (some centres not stated)	class 1
CCCC(=O)OCC1OC(n2cnc3c(=S)nc[nH]c32)C(OC(=O)CCC)C1OC(=O)CCC (configuration not stated)	class 0
O=c1sn(-c2cccc3ccccc23)c(=O)n1Cc1ccccc1	class 0
CS(=O)(=O)CCNCc1ccc(-c2ccc3ncnc(Nc4ccc(OCc5cccc(F)c5)c(Cl)c4)c3c2)o1	class 1
Cc1cc(N(CCNc2ccnc3cc(Cl)ccc23)Cc2ccc3c(c2)OCO3)nc(N2CCN(C)CC2)n1	class 1
COc1cc(NC2CCC(=O)N2c2ccc(Cl)cc2Cl)cc(OC)c1OC (configuration not stated)	class 0
CC(=O)OCCC/C(=C\c1ccc2ccccc2c1)[N+](=O)[O-]	class 1
Cc1cc([C@@H](C)Nc2ccccc2C(=O)O)c2nc(N3CCOCC3)cc(=O)n2c1	class 0
CSC1=C(N)C(=O)c2[nH]cc(CO)c2C1=N	class 1
COc1ccc2c(c1)cn1c3ccc(O)cc3nc(N)c21	class 1
Cc1nn(-c2ccccc2)c2c1N=c1s/c(=C\c3cn(-c4ccccc4)nc3-c3ccc(Cl)cc3)c(=O)n1C(C)N2 (configuration not stated)	class 0
COC(=O)Nc1nc2ccc(C(=O)c3ccc(N(C)C4COC4)cc3)cc2[nH]1	class 0
Cc1cc2c(-c3nc4ccccn4c3N)c(O)c(O)cc2c(O)c1-c1c(C)cc2c(-c3nc4ccccn4c3N)c(O)c(O)cc2c1O	class 1
CCCCCCC1(/C=N/NC(N)=O)NC(=O)NC1=O (configuration not stated)	class 0
COc1cc(C(=O)NNC(=O)c2ccc(NC(=O)CCl)cc2)cc(OC)c1OC	class 0
O=C(CNc1nc(-c2ccc(Cl)cc2)cs1)Nc1ccc(-c2nc3ccccc3s2)cc1	class 0
N#Cc1c(C(F)(F)F)cc(Nc2ccc3nc(NCCN4CCCC4)oc3c2)n2c1nc1ccccc12	class 0
CCCC(=O)OCC1OC(n2cnc3c(=S)nc(N)[nH]c32)C(OC(=O)CCC)C1OC(=O)CCC (configuration not stated)	class 0
COC1CCC(N2C(=O)CNc3ncc(-c4ccc(C(C)(C)O)nc4)nc32)CC1 (configuration not stated)	class 1
O=C(NO)c1ccc(Cn2c(=O)n(-c3ccccc3F)c(=O)c3ccccc32)cc1	class 1
Cn1ncc(Cl)c1-c1cc(C(=O)N[C@H](CN)Cc2cccc(F)c2)sc1Cl	class 1
Cc1ncc(-c2ccnc(Nc3ccc(S(C)(=O)=O)cc3)n2)n1C(C)C	class 1
O=C(NOCCO)c1cc(CN2OCCCC2=O)c(F)c(F)c1Nc1ccc(I)cc1F	class 0
Nc1c2c(c(O)c3c1=C(CO)C=N3)=NCCS2	class 1
COc1cc(-c2nc(C(=O)Nc3ccc(C)cc3)nn2-c2ccc(F)c(F)c2)cc(OC)c1OC	class 0
C=CCn1c(=O)c2cnc(Nc3ccc(N4CCN(C)CC4)cc3)nc2n1-c1cccc(C(C)(C)O)n1	class 1
COc1cc(CCc2cc(NC(=O)c3ccc(N4C[C@@H](C)N[C@@H](C)C4)cc3)n[nH]2)cc(OC)c1	class 0
O=S1(=O)OC(c2cc(Cl)c(O)c(Br)c2)(c2cc(Cl)c(O)c(Br)c2)c2ccccc21	class 0
C#Cc1cccc(Nc2ncnc3cc(OC)c(OCCCCCCC(=O)NO)cc23)c1	class 1
C[C@@H](Nc1cc(F)cc(F)c1)c1cc(C(=O)N(C)C)cc2c(=O)cc(N3CCOCC3)oc12	class 0

Ref: PubChem BioAssay (NCI)
